These measurements were taken from the RNAGym collection of RNA variant scans (doi:10.7554/elife.90254).

B1: LINE1-full (parent)
chain: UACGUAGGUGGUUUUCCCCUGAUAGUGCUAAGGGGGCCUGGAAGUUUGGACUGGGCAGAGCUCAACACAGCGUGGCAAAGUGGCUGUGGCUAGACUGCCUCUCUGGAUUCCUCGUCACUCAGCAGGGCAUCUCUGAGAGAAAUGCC

# Variants of: B1
# Test Summary: self-cleavage, relative activity (ratio to wild type); higher = more cleavage; in vitro, sequencing; the parent is a self-cleaving ribozyme
Reported Metric: self-cleavage

Looking for the measured self-cleavage of C71U U109A , can you help?
0.41

Same again, this time with A92G A136G
0.08

Same again, this time with A2U U85G
0.14

Same again, this time with A57U G58U
0.04

Same again, this time with A77U C84U
0.08

New cases:
Looking for the measured self-cleavage of A2C A107G , can you help?
1.15

Same again, this time with A65U A69C
0.02

Same again, this time with G89A A138U
0.05
